Every entry's value here was drawn from patent US8129415B2.

# Assay notes: logP by HPLC on reversed-phase column (C 18), EEC Directive 79/831 Annex V.A8
# Type: physicochemical
# Conditions used: HPLC reversed-phase C 18, 40° C., 0.1% aqueous formic acid and acetonitrile gradient
Readout kind: LogP
Answer field: number only, no words.

Ask: Give its LogP value. Item: COCCC(=O)Nc1nonc1CON=C(c1ccc(Cl)nc1)n1nnnc1C
Reply: 2.17

====

# Assay notes: logP by HPLC on reversed-phase column (C 18), EEC Directive 79/831 Annex V.A8
# Format: physicochemical
# Conditions used: HPLC reversed-phase C 18, 40° C., 0.1% aqueous formic acid and acetonitrile gradient
Readout kind: LogP

[
  {
    "Smiles representation": "Cc1nnnn1C(=NOCc1csc(N)n1)c1ccccn1",
    "LogP": 0.83
  },
  {
    "Smiles representation": "COc1ccc(C(=O)Nc2nc(CON=C(c3ccc(Cl)nc3)n3nnnc3C)cs2)cc1",
    "LogP": 2.97
  },
  {
    "Smiles representation": "Cc1nnnn1C(=NOCc1csc(NC(=O)c2cccs2)n1)c1ccc(Cl)nc1",
    "LogP": 2.82
  }
]

Ask: Give its LogP value. Item: Cc1nnnn1C(=NOCc1csc(NC(=O)NC(C)(C)C)n1)c1ccccn1
Reply: 2.16

Ask: Give its LogP value. Item: COCCC(=O)Nc1nc(CON=C(c2cnccc2OC)n2nnnc2C)cs1
Reply: 2.25

====

# Assay notes: logP by HPLC on reversed-phase column (C 18), EEC Directive 79/831 Annex V.A8
# Assay type: physicochemical
# Conditions used: HPLC reversed-phase C 18, 40° C., 0.1% aqueous formic acid and acetonitrile gradient
Readout kind: LogP
Answer field: number only, no words.

Known LogP results, listed for orientation:
[
  {
    "Smiles representation": "Cc1cccc(C(=NOCc2csc(NC(=O)NCCc3ccc(Cl)c(Cl)c3)n2)n2nnnc2C)n1",
    "Result": 3.34
  },
  {
    "Smiles representation": "Cc1cccc(C(=NOCc2csc(NC(=O)NCCc3ccc(F)cc3)n2)n2nnnc2C)n1",
    "Result": 2.78
  },
  {
    "Smiles representation": "COc1ccc(CCNC(=O)Nc2nc(CON=C(c3ccccn3)n3nnnc3C)cs2)cc1",
    "Result": 2.44
  }
]

Next item in the queue.
Ask: Give its LogP value. Item: Cc1nnnn1C(=NOCc1nsc(N)n1)c1ccc(Cl)nc1
Reply: 1.78

====

# Assay notes: logP by HPLC on reversed-phase column (C 18), EEC Directive 79/831 Annex V.A8
# Format: physicochemical
// chromatographic logP lookup, one value per entry

Known chromatographic logP results, listed for orientation:
[
  {
    "Smiles representation": "CCCCCC(=O)Nc1cccc(CO/N=C(\\c2cccc(C)n2)n2nnnc2C)n1",
    "Readout kind": "chromatographic logP",
    "Result": 3.43
  },
  {
    "Smiles representation": "Cc1cccnc1/C(=N\\OCc1csc(N)n1)c1nnnn1C",
    "Readout kind": "chromatographic logP",
    "Result": 1.04
  },
  {
    "Smiles representation": "Cc1cccc(/C(=N\\OCc2cccc(N)n2)n2nnnc2C)n1",
    "Readout kind": "chromatographic logP",
    "Result": 1.18
  },
  {
    "Smiles representation": "CCCCCC(=O)Nc1nc(CO/N=C(\\c2ncccc2C)c2nnnn2C)cs1",
    "Readout kind": "chromatographic logP",
    "Result": 2.94
  }
]

Next item in the queue.
Ask: Give its chromatographic logP value. Item: Cc1nnnn1/C(=N/OCc1csc(NC(=O)C(C)(C)C)n1)c1ccc(Cl)nc1
Reply: 2.9

====

// LogP lookup, one value per entry
# Assay notes: logP by HPLC on reversed-phase column (C 18), EEC Directive 79/831 Annex V.A8
# Format: physicochemical
# Conditions used: HPLC reversed-phase C 18, 40° C., 0.1% aqueous formic acid and acetonitrile gradient
Answer field: number only, no words.

Known LogP results, listed for orientation:
[
  {
    "Smiles representation": "Cc1nnnn1C(=NOCc1csc(NC(=O)NCc2ccccc2)n1)c1ccccn1",
    "LogP": 2.15
  },
  {
    "Smiles representation": "Cc1nnnn1C(=NOCc1csc(NC(=O)c2ccccc2)n1)c1ccc(Cl)nc1",
    "LogP": 2.87
  },
  {
    "Smiles representation": "Cc1nc(CON=C(c2ccc(Cl)nc2)n2nnnc2C)cs1",
    "LogP": 2.33
  },
  {
    "Smiles representation": "Cc1cccc(C(=NOCc2csc(NC(=O)NCCc3ccccc3)n2)n2nnnc2C)n1",
    "LogP": 2.72
  },
  {
    "Smiles representation": "CCCCCC(=O)Nc1nc(CON=C(c2ccccn2)n2nnnc2C)cs1",
    "LogP": 2.7
  },
  {
    "Smiles representation": "Cc1nnnn1C(=NOCc1noc(-c2ccc(C(C)(C)C)cc2)n1)c1ccc(Cl)nc1",
    "LogP": 4.47
  },
  {
    "Smiles representation": "Cc1cccnc1C(=NOCc1csc(NC(=O)Cc2ccccc2)n1)c1nnnn1C",
    "LogP": 2.62
  }
]

Ask: Give its LogP value. Item: Cc1nnnn1C(=NOCc1csc(NC(=O)C2CC2)n1)c1ccc(Cl)nc1
Reply: 2.36

====

// LogP lookup, one value per entry
# Assay notes: logP by HPLC on reversed-phase column (C 18), EEC Directive 79/831 Annex V.A8
# Format: physicochemical
# Conditions used: HPLC reversed-phase C 18, 40° C., 0.1% aqueous formic acid and acetonitrile gradient
Answer field: number only, no words.

[
  {
    "Compound": "CCCCCCCCOC(=O)Nc1nc(CON=C(c2cnccc2OC)n2nnnc2C)cs1 [compound 147]",
    "Result": 5.03
  },
  {
    "Compound": "CCCNC(=O)Nc1nc(CON=C(c2ccccn2)n2nnnc2C)cs1 [compound 19]",
    "Result": 1.95
  },
  {
    "Compound": "Cc1cccc(C(=NOCc2noc(-c3ccc(C(C)(C)C)cc3)n2)n2nnnc2C)n1 [compound 93]",
    "Result": 4.5
  }
]

Next item in the queue.
Ask: Give its LogP value. Item: Cc1nnnn1C(=NOCc1csc(N)n1)c1ccc(Cl)nc1 [compound 34]
Reply: 1.27
